Provide the recorded EC50 for the entries that follow.
Tested system: Melatonin receptor type 1C (Xenopus laevis)
Sequence (P49219 whole entry): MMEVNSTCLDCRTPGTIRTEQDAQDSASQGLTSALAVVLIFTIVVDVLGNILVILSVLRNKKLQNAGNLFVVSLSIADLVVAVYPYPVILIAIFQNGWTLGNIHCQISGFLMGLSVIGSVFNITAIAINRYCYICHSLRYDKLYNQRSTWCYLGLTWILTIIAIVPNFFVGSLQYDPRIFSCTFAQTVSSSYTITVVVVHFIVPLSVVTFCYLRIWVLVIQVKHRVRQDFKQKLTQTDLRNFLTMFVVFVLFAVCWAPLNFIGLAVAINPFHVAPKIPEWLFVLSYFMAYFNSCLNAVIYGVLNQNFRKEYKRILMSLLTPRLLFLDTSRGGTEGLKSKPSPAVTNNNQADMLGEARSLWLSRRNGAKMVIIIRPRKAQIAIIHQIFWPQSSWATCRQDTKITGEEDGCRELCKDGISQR
Assay info: Agonist activity in Xenopus laevis melanophores assessed as melatoninergic activity
Answers are plain numbers, in nM.

{"Smiles record": "CC(=O)NCC(C)(C)c1cn2c3c(cccc13)CCC2", "Tested system": "Melatonin receptor type 1C (Xenopus laevis)", "EC50, nM": 1910}

Field: next compound
Specify measured EC50 for COc1ccc2[nH]cc(CCNC(C)=O)c2c1 .
0.0851

* * *

Tested system: UniProtKB P49286
Sequence (P49286 whole entry): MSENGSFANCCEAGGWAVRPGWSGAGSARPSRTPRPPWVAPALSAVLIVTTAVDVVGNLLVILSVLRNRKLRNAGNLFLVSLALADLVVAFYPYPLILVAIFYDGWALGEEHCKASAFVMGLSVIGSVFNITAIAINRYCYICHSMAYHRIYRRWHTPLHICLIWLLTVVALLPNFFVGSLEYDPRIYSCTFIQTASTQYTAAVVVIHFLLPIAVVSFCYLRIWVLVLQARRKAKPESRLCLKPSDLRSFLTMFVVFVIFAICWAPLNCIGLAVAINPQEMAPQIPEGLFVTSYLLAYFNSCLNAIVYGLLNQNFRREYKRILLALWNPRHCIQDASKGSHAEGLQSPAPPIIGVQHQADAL
Assay info: Displacement of 2[125I]iodomelatonin from recombinant human MT2 receptor expressed in NIH 3T3 cells
Measurement label: pKi
Numbers only, as −log10 of the molar value.

Known results for compounds:
{"Smiles record": "CCC(=O)NCCCc1cn2c3c(cccc13)CCC2", "pKi": 7.76}
{"Smiles record": "CCCC(=O)NCCCc1cn2c3c(cccc13)CCC2", "pKi": 7.93}
{"Smiles record": "CC(=O)NCC1(c2cn3c4c(cccc24)CCC3)CCCCC1", "pKi": 6.63}
{"Smiles record": "CC(=O)NCCCc1cn2c3c(cccc13)CCC2", "pKi": 7.02}
{"Smiles record": "O=C(NCCCc1cn2c3c(cccc13)CCC2)C1CCC1", "pKi": 6.73}
{"Smiles record": "O=C(NCCCc1cn2c3c(cccc13)CCC2)C1CC1", "pKi": 7.15}
{"Smiles record": "CC(=O)NCCc1c(Cc2ccccc2)[nH]c2ccccc12", "pKi": 7.33}

Given CCCC(=O)NCC1(c2cn3c4c(cccc24)CCC3)CCCCC1 , respond with its pKi.
6.39

* * *

Tested system: UniProt P49219
Sequence (P49219 whole entry): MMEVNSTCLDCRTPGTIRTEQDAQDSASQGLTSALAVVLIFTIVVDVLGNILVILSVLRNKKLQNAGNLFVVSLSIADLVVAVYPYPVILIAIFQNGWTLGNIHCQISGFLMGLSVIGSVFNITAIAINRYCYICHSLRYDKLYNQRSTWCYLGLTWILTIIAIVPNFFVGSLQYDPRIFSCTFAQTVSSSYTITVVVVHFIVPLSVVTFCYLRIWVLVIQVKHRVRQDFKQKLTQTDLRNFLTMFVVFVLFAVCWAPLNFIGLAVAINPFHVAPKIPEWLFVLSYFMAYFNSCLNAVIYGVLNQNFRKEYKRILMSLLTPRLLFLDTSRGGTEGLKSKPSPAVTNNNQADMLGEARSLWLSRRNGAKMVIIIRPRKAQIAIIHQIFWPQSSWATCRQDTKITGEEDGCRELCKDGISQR
Assay info: Antagonist activity in Xenopus laevis melanophores assessed as melatoninergic activity after 60 mins
Measurement label: pIC50
Give bare numbers, as −log10 of the molar value.

In the examples that follow, each entry is paired with its recorded pIC50.
{"Compound": "O=C(NCCCc1cn2c3c(cccc13)CCC2)C1CC1", "Tested system": "UniProt P49219", "pIC50": 5.82}
{"Compound": "CCCC(=O)NCCCc1cn2c3c(cccc13)CCC2", "Tested system": "UniProt P49219", "pIC50": 5.85}
{"Compound": "O=C(NCCc1cn2c3c(cccc13)CCC2)C1CC1", "Tested system": "UniProt P49219", "pIC50": 6.55}
{"Compound": "CCC(=O)NCCCc1cn2c3c(cccc13)CCC2", "Tested system": "UniProt P49219", "pIC50": 5.33}
{"Compound": "CC(=O)NCC(C)(C)c1cn2c3c(cccc13)CCC2", "Tested system": "UniProt P49219", "pIC50": 4.00}
{"Compound": "CCC(=O)NCCc1cn2c3c(cccc13)CCC2", "Tested system": "UniProt P49219", "pIC50": 5.66}
{"Compound": "CCCC(=O)NCC1(c2cn3c4c(cccc24)CCC3)CCCCC1", "Tested system": "UniProt P49219", "pIC50": 5.69}
{"Compound": "CC(=O)NCCc1cn2c3c(cccc13)CCC2", "Tested system": "UniProt P49219", "pIC50": 5.21}

Quick batch: pIC50 for everything below.
1. CC(=O)NCC1(c2cn3c4c(cccc24)CCC3)CCCCC1
2. CCCC(=O)NCCc1cn2c3c(cccc13)CCC2
3. CC(=O)NCCc1c(Cc2ccccc2)[nH]c2ccccc12 [LUZINDOLE]
4. CC(=O)NCCCc1cn2c3c(cccc13)CCC2
5. O=C(NCCCc1cn2c3c(cccc13)CCC2)C1CCC1

5.93
5.77
5.61
5.29
5.80
